molecular target: human adenosine receptor A2A (Homo sapiens); test: Adenosine receptor A2A cAMP test (LANCE Ultra cAMP, hADORA2A-HEK293 cells); conditions: stimulating production of cyclic AMP, hADORA2A-HEK293 cells
Sequence (P29274 whole entry): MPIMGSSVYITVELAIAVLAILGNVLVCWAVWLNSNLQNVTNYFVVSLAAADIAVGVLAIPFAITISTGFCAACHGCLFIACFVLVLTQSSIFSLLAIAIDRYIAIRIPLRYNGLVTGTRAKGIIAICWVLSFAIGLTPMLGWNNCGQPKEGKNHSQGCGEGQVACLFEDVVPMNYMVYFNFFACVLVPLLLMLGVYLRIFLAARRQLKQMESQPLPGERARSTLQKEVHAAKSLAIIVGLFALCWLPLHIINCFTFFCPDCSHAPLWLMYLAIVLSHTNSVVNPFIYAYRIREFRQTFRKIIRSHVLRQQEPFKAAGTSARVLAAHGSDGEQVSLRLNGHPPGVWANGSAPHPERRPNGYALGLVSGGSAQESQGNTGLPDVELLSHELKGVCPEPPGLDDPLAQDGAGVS
Outcome measure: EC50 (nM)

In [3]: df
Out[3]:
                                   compound                                 tested_on  value_reported
0  N#Cc1ccc(/C=N/Nc2nc(N)c3ncn([C@@H]4O[C@H](CO)C(O)C4O)c3n2)cc1 (stereo partly shown)  human adenosine receptor A2A (Homo sapiens)            15.3

a: CCN(CC)c1ccc(/C=N/Nc2nc(N)c3ncn([C@@H]4O[C@H](CO)[C@@H](O)[C@H]4O)c3n2)cc1
b: Nc1nc(N/N=C/c2ccc(OCc3ccccc3)c(OCc3ccccc3)c2)nc2c1ncn2[C@@H]1O[C@H](CO)[C@@H](O)[C@H]1O
c: Nc1nc(N/N=C/c2ccc(OCc3ccc(F)cc3)cc2)nc2c1ncn2[C@@H]1O[C@H](CO)[C@@H](O)[C@H]1O
Please give the order of these compounds when sorted by EC50, largest value leading. In your reply, arrange the labels in the requested order.
a, c, b
(a: 17.9 nM, c: 4.1 nM, b: 0.64 nM)

----------
Outcome measure: melting point (°C)

1: Nc1nc(N/N=C/c2cccc(OCc3ccccc3)c2)nc2c1ncn2[C@@H]1O[C@H](CO)[C@@H](O)[C@H]1O
2: Nc1nc(N/N=C/c2ccc(-c3ccccc3)cc2)nc2c1ncn2[C@@H]1O[C@H](CO)C(O)C1O (some centres unmarked)
// pick min by melting point: 1 , 2 Respond using the label that marks the chosen record.
1
(1: 148 °C, 2: 234 °C)

P: COc1cc(/C=N/Nc2nc(N)c3ncn([C@@H]4O[C@H](CO)[C@@H](O)[C@H]4O)c3n2)ccc1OCc1ccccc1
Q: Nc1nc(N/N=C/c2ccc(C(F)(F)F)cc2)nc2c1ncn2[C@@H]1O[C@H](CO)[C@@H](O)[C@H]1O
// pick min by melting point: P , Q Respond using the label that marks the chosen record.
P

P: CCOc1cc(/C=N/Nc2nc(N)c3ncn([C@@H]4O[C@H](CO)[C@@H](O)[C@H]4O)c3n2)ccc1O
Q: CC(=O)Nc1ccc(/C=N/Nc2nc(N)c3ncn([C@@H]4O[C@H](CO)[C@@H](O)[C@H]4O)c3n2)cc1
// compare measured melting point, left P , right Q , return larger Respond using the label that marks the chosen record.
P

----------
molecular target: (human) A2A adenosine receptors (Homo sapiens); construct: purchased PerkinElmer Research Products (Boston, Mass.); host or cells: HEK-293; assay: Radioligand binding test ([3H]CGS21680 displacement, hA2A HEK-293 cell membranes); settings: calculated from IC50 by Cheng and Prusoff equation, [S] 25 nM, Km […] nM; read-out: Ki (inhibition constant)
Sequence (P29274 whole entry): as above
Outcome measure: Ki (nM)

Known results for molecules:
                                   molecule                                 tested_on  scale_unit  value_reported
0  Nc1nc(N/N=C/c2ccc(OCc3ccc(F)cc3)cc2)nc2c1ncn2[C@@H]1O[C@H](CO)[C@@H](O)[C@H]1O [Compound 5]  (human) A2A adenosine receptors (Homo sapiens)          nM             5.5
1  Nc1nc(N/N=C/c2ccc(Cl)c(C(F)(F)F)c2)nc2c1ncn2[C@@H]1O[C@H](CO)[C@@H](O)[C@H]1O [Compound 7]  (human) A2A adenosine receptors (Homo sapiens)          nM             801
2  COc1cc(/C=N/Nc2nc(N)c3ncn([C@@H]4O[C@H](CO)[C@@H](O)[C@H]4O)c3n2)ccc1OCc1ccccc1 [Compound 19]  (human) A2A adenosine receptors (Homo sapiens)          nM             101
3  Nc1nc(N/N=C/c2ccc(N(c3ccccc3)c3ccccc3)cc2)nc2c1ncn2[C@@H]1O[C@H](CO)[C@@H](O)[C@H]1O [Compound 4]  (human) A2A adenosine receptors (Homo sapiens)          nM            66.7
4  Nc1nc(N/N=C/c2cccc(OCc3ccccc3)c2)nc2c1ncn2[C@@H]1O[C@H](CO)[C@@H](O)[C@H]1O [Compound 6]  (human) A2A adenosine receptors (Homo sapiens)          nM             173

a: Nc1nc(N/N=C/c2ccc(-n3ccnc3)cc2)nc2c1ncn2[C@@H]1O[C@H](CO)[C@@H](O)[C@H]1O [Compound 12]
b: CC(=O)Nc1ccc(/C=N/Nc2nc(N)c3ncn([C@@H]4O[C@H](CO)[C@@H](O)[C@H]4O)c3n2)cc1 [Compound 1]
// compare measured Ki, left a , right b , return larger Respond using the label that marks the chosen record.
b
